assay: folding stability dG unfold (combined trypsin and chymotrypsin); higher = more stable
Please go through the items and note down their folding stability dG unfold.
One number for each entry, in kcal/mol.

Take a look at these entries with their results.
MONOMER SEQUENCE	folding stability dG unfold [kcal/mol]
SALPPGTTVTYTFYDPATGALVTVTVTTLPDGTVRVTLTVYDPSTGETTTVTFTVDGATLDELLDFIRAGSA [r9_618_TrMRF]	5.37
SAGGSAGGSAGSLPIPISSESVSSLPESPLSVVTVKLPDGKTVVITVDLNSSSSSVTPLPSAGGSAGGSAGG [r17_369_JUSTAS]	1.37

Shifting focus to the sequence that follows.
Given SAMKPGEKVKIKIITFEKKKDPKTGEEKIEMKEIEIEATITEVEEKDGKVTVKIKIENLPPGAMIIIEKSAG [r14_412_TrROS_Hall] , respond with its folding stability dG unfold.
3.18

###

So I've got a bunch of sequences here, and I need their folding stability dG unfold values.
test: folding stability dG unfold from chymotrypsin proteolysis; higher = more stable
One number for each entry, in kcal/mol.

MONOMER SEQUENCE	NUMERIC RESULT
SAGGKKETVKVTLEIEVNGKKYKIELTKNKDGTVTIKITDKNGKKIEIEIPMSPEDVKKLLEELLKKLSAGG [r13_296_TrROS_Hall]	3.93
SAGGSAGGSMIVVPLERELDPSEPGLTKEEVKAILEAKGLDVVDIKVSTDPAKGLTRAVAKVKSAGGSAGGS [r12_1052_JUSTAS]	-0.851
SAGGSAGGSMLKVRIKIEIDGKTLEVEIEVPPGTTIEELAEALKKLFPGKEVKIVSVEVYELPSAGGSAGGS [r12_427_TrROS_Hall]	4.23

Now let's try a different one.
Assign folding stability dG unfold to the following record: SAGGKSKTIPIQPGDIRKVRDQLKELPDEGDNVRIHNPDNGKEREMDPDQLDDNVEKNGEPPTIHVRSAGGS [r16_263_TrROS]
-0.528

###

experiment: folding stability dG unfold from chymotrypsin proteolysis; higher = more stable
Would you kindly list folding stability dG unfold for each of these sequences?
One number for each entry, in kcal/mol.

The following sequences have reported results that may help.
MONOMER SEQUENCE	MEASUREMENT KIND	UNIT STRING	NUMERIC RESULT
SAGGMEVVFVVGSPEVAEAFREKHPDLPFVPVSLEDYRNPAPFEAAVAAVEARGHAVRVITVPDDPESAGGS [r8_376_JUSTAS]	folding stability dG unfold	kcal/mol	1.12
SAGGSATIEEIAQEIADNLPPGRKYRAKIYYDGEERTYEFRNPNGFKINITWKNGKIRSIDIEPRPSAGGSA [r15_175_TrROS]	folding stability dG unfold	kcal/mol	2.01
SPGWYKVDIEIPMKEIQEEFGDPDKPITADRIKERVKKIAETIGFEVRDVEIEMDPNGWVRVTVTIPVKNSA [r9_52_TrROS]	folding stability dG unfold	kcal/mol	3.89
SAGGMEEIVKALPPEAGVVEIESEPLPLEDSILRRYRLRVYNPATGKWEELEVLIEYDKDGNIRRIVASAGG [r13_358_TrMRF]	folding stability dG unfold	kcal/mol	3.94
SAGGSAGGSAPDIKIEKIGENTYKITLNFEFTFEDGSKVKVKITFTFTVNFPEDDPLLKELFSAGGSAGGSA [r18_215_TrMRF]	folding stability dG unfold	kcal/mol	3.21
SAGGSAGGSAGGPVLIRAVFTPPNGPVLELVVPSPEEVVELAKPFDVEVHIEPISPDDPFSAGGSAGGSAGG [r7_456_TrMRF]	folding stability dG unfold	kcal/mol	-1.12

Count: 3. Required value per item: folding stability dG unfold.
1. SAGGSAGGSGPVLLVRVRPDGTREILDVLPPDEPVENLPAGEFREFRLIPTESLEDALRKALASAGGSAGGS [r12_452_TrMRF]
2. SADKEAVRKIAEKFMQEPGFEPRGISPDGHIMFRPPGQGRMYRIDIDVEKDNDGLDVKIPDIEPVPMPDSAG [r14_20_TrROS]
3. SAGGSAGGSAGGDESYRKLLEELPLPVTEIVVETVPLPETDEPITVVTPKNPDGKEVTLGSAGGSAGGSAGG [r7_337_JUSTAS]

1. 0.304
2. -0.0277
3. -0.557

Go through the list and state folding stability dG unfold for each entry.
1. SAGGSAGGSAGGKMWIMIPKNEPINLPPGFDKVEIMTNPDDGYVMIRVDSPEDFKRLLEASAGGSAGGSAGG [r7_172_TrROS]
2. SAGGPGAAPTSTTVTVTIHLPMPPDVSDEEAKALAKERIKEEFPPSYTIESITVDPATNVVTATVKVASAGG [r19_81_JUSTAS]
3. SAGGSAGGSPPMKTYEHWIRFDSPEQAVEEVANHIQDHFGLEIKSVEIEYDPENGWVRVKIVISAGGSAGGS [r12_265_TrROS]
4. SAGGSAGGSAGGVPEDVIMSPVSTTLVEKEVLSTEVTPEGAPKTVEKVLIVEKTLEPLLSAGGSAGGSAGGS [r10_758_JUSTAS]
5. SAGGSAGGSMPVKVITTISRETVPLPNGDPGARYTVTTTVTTDSTVVSTTTTTFSSEAELAAASAGGSAGGS [r12_461_JUSTAS]
6. SAKMVVLKAYFKGDGDEIKEIADAIDFPYTIEKIPDYPDYYIATFVFPTEEKAPEWEKALKEKGYIVEGSAG [r14_745_TrMRF]
7. SAGGSAGGSAEEPEFEIVSVEYDPETNVLTVVVRDKKTGRLYVFRFYPDGTVEVREVSLEDLSAGGSAGGSA [r18_521_TrROS_Hall]
8. SMKIVIVKNKDGTVIVRITFPNGEEITITAKTEEEAKKAIEELIKKLQEKYNIKIKIEVKPVKPGEVIEESA [r9_786_TrROS_Hall]

[0.866, 2.88, 3.45, -0.853, 0.854, 2.48, 5.03, 2.84]

I'm hoping you can list folding stability dG unfold for every sequence here, please.
1. KTITIVVKVPSLEEVEALAAELAKELNLPPGAKVEVKVEYDEETGYVVVTVTVTNPNGEKIEIKIVVELPDS [r1_84_TrROS_Hall]
2. SAGGSAGGSAGGKIKDAEIVSVEYDPETGVLYMEVKLEDGSTYRIRFDLKTNKLTIEPVSAGGSAGGSAGGS [r10_674_TrROS_Hall]
3. SAGGSAGGSAEVTFKKVSFSPPENTVYVSEVKAKLYVGEDDSLKFKVEPVKVEKVSPADLLAKSAGGSAGGS [r12_374_TrMRF]
4. SAGMPSVTVTPVTVTVEGTAPPDLTEEELRADPTYTRTVEIDATVTLYPETGTVTVTLPGGVTVTLPSPSAG [r5_701_JUSTAS]

3.72
4.91
0.0476
0.929

Provide folding stability dG unfold for all items below, preserving their order.
1. SAGGSAGGSMVVTERSVRPVPRLVRTSDPSTGSSSVHLDPGAVETVRVIEEPPTPELLANTGASAGGSAGGS [r20_172_JUSTAS]
2. SAGGSAGGMIIRITTKNGKTLEIKAKSLEEAKAAIAEKLGLSKENIKPEDITKVEIYSEEELKESAGGSAGG [r6_586_TrROS_Hall]
3. SMITIEINVGNKKYTVEIVPEKGIIKITDPNGTPIGEGEIKPDSIDITLTKPNTDETYKFTFPIPPESLPSA [r9_963_JUSTAS]
4. SAGGSAGGSLLEDIKKALEIIKPPPIPVKVKVKIEYDPEKGELKVEVEFFGIKLKVEGEFKIESAGGSAGGS [r20_230_TrMRF]
5. SAGGKPPGLSEIPLPDNKTEKVPVNSDIVLKRPDGTELKYKLPPEPVTTEKNKYTIKLPNGEITIPINSAGG [r13_643_JUSTAS]
6. SGGMTPEQMIRHVLREARANNPGKKIEISWNSIQKNFPHPMSPEEIKKELKEEDGIKDVTIQPIPPNDPFSA [r9_738_TrROS]

1: -1.36; 2: 3.28; 3: 3.04; 4: 3.4; 5: -0.0683; 6: -0.315

Each recorded value in this set is attributed to the supplement of paper PMC12764529.
